Test: In Vitro Hydrolysis in Rat Plasma
Type: in vitro ADME
Settings: column head pH 3, read-out: In Vitro Hydrolysis in Rat Plasma: T1/2
value.type: half-life

// query What value of measured half-life is listed for "COc1ccc2cc(CC(=O)OCCOCCO[N+](=O)[O-])ccc2c1" ?
// result > 5 min

---

Test: Chemical Hydrolysis
Assay type: physicochemical
Details: pH 8
value.type: half-life (h)
# unit: h | format: bare number

// query Endpoint output: half-life of "COc1ccc2cc(CC(=O)OCC(C)=O)ccc2c1" . Value?
// result 7

---

Test: Chemical Hydrolysis
Type: physicochemical
Settings: pH 3
half-life values by entry

COc1ccc2cc(CC(=O)OCCOCCO[N+](=O)[O-])ccc2c1 | > 300 h

Could you now look at the following compound, please?
// query // half-life lookup, key: "COc1ccc2cc(CC(=O)OCC(C)=O)ccc2c1"
// result > 25 h
